# Test system: F1*sub RNA substrate (template-directed ligation)
# EXPERIMENTAL_PROTOCOL: fraction ligated after 30 min (ligated reads / total reads); higher = more ligase activity; sequences stand for … in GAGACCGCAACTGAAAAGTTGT…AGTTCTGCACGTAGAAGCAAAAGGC
# RUN_PARAMETERS: 42 °C
Rule: fraction ligated of 0.4 or more gives True; anything lower gives False.

Answered cases to consult:
Enquiry: Entry TATCACTTGTCGTAAAACTTTGGAGGGTTGA [3d2063] : is its fraction ligated no less than 0.4?
Return: False

Enquiry: Now the sequence TATCATTGTCGTAAGCACTTTGGATGGGTTA [3d1245]
Return: True

Others:
Enquiry: Entry TCACTTGTCGTAAACACTTTGGATGGGTTGA [3d12] : is its fraction ligated no less than 0.4?
Return: True

Enquiry: Now the sequence TACACTTGTCGAAGACACTTTGGATGGGTTG [3d658]
Return: True

Enquiry: Now the sequence TATCACTTGCTAAGACACTTTGGATGGGTTG [3d1612]
Return: True

Enquiry: Now the sequence TATACTTGTCGTAAGACACTTGGATGGGTTG [3d931]
Return: True

Enquiry: Now the sequence TATCACTTGTCTAAGACACTTTGGAGGTTGA [3d1895]
Return: False

Enquiry: Now the sequence TACACTTGTCGTAAGAACTTTGGATGGGTTG [3d699]
Return: False

Enquiry: Now the sequence TATCCTTGTCGTAAGCACTTTGATGGGTTGA [3d1069]
Return: True

Enquiry: Now the sequence TCACTTGTCGTAAGACACTTTGGATGGGTTGA [2d1]
Return: True

Enquiry: Now the sequence TATCACTTGTCTAAGACACTTGGATGGGTTG [3d1884]
Return: True

----------
# System: F1*sub RNA substrate (template-directed ligation)
# EXPERIMENTAL_PROTOCOL: fraction ligated after 30 min (ligated reads / total reads); higher = more ligase activity; sequences stand for … in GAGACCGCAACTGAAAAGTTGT…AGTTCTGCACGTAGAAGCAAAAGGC
# RUN_PARAMETERS: 42 °C
Rule: fraction ligated of 0.3 or more gives YES; anything lower gives NO.

Enquiry: Entry TATACTTGTCGTAAGACCTTTGGTGGGTTGA [3d913] : is its fraction ligated no less than 0.3?
Return: NO

Enquiry: Now the sequence TATCACTTTCAAGACACTTTGGATGGGTTGA [3d1479]
Return: YES

Enquiry: Now the sequence TACACTTGTCGTAAGACACTTTGGATGGGTT [3d736]
Return: NO

Enquiry: Now the sequence TATCACTTGTCGAAGCACTTTGGTGGGTTGA [3d1930]
Return: NO

Enquiry: Now the sequence TATCACTTGTCGTAAGACACTGGATGGTTGA [3d2235]
Return: NO

----------
# System: F1*sub RNA substrate (template-directed ligation)
# EXPERIMENTAL_PROTOCOL: fraction ligated after 30 min (ligated reads / total reads); higher = more ligase activity; sequences stand for … in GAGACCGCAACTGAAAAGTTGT…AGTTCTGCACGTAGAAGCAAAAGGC
# RUN_PARAMETERS: 42 °C
Rule: fraction ligated of 0.8 or more gives MET; anything lower gives NOT MET.

Answered cases to consult:
Enquiry: Entry TATCACGTCGTAAGCACTTTGGATGGGTTGA [3d1300] : is its fraction ligated no less than 0.8?
Return: NOT MET

Enquiry: Now the sequence TATCCTTGTCGTAAGACACTTGGAGGGTTGA [3d1100]
Return: NOT MET

Enquiry: Now the sequence TATCACTTTCGTAAGACACTTGGTGGGTTGA [3d1563]
Return: NOT MET

Enquiry: Now the sequence ATCACTTGTGTAAGCACTTTGGATGGGTTGA [3d160]
Return: MET

Enquiry: Now the sequence TATCCTTTCGTAAGACCTTTGGATGGGTTGA [3d975]
Return: NOT MET

Others:
Enquiry: Entry TATCACTTTCTAAGAACTTTGGATGGGTTGA [3d1483] : is its fraction ligated no less than 0.8?
Return: MET

Origin of measurements: the supplement of paper PMC6755084
